Value source: paper PMC8956739

- System: Swiss mice, kidney
- experiment_notes: Nephrotoxicity in mice (kidney histopathology)
- Format: in vivo, mouse
- stated_conditions: mouse, in vivo
Residues, ends and D or L forms follow the SMILES beside them.
measured_property: Kidney histopathology, mice with the SQS score

Record excerpt, results attached:
* CCCCCCCC(=O)N[C@@H](CCN)C(=O)N[C@H](C(=O)N[C@H](CO)C(=O)N[C@H]1CCNC(=O)[C@H]([C@@H](C)O)NC(=O)[C@H](CCN)NC(=O)[C@H](CCN)NC(=O)[C@H]([C@@H](C)O)NC(=O)[C@@H](CC(C)C)NC(=O)[C@H](CCN)NC1=O)[C@@H](C)O [Lipopeptide F183] (HELM PEPTIDE1{[CCCCCCCC(=O)[*:2]].[Dab].T.[dS].[Dab].[Dab].[dL].T.[Dab].[Dab].T}$PEPTIDE1,PEPTIDE1,5:R3-11:R2$$$V2.0) | 3/3
* CCCCCCCC(=O)N[C@@H](CCN)C(=O)N[C@H](C(=O)N[C@@H](CCN)C(=O)N[C@H]1CCNC(=O)[C@H]([C@@H](C)O)NC(=O)[C@H](CCN)NC(=O)[C@H](CCN)NC(=O)[C@H]([C@@H](C)O)NC(=O)[C@@H](CC(C)C)NC(=O)[C@H](CCN)NC1=O)[C@@H](C)O [Lipopeptide F100] (HELM PEPTIDE1{[CCCCCCCC(=O)[*:2]].[Dab].T.[Dab].[Dab].[Dab].[dL].T.[Dab].[Dab].T}$PEPTIDE1,PEPTIDE1,5:R3-11:R2$$$V2.0) | 3/3
* CC[C@@H]1NC(=O)[C@@H](CC(C)C)NC(=O)[C@H](CCN)NC(=O)[C@@H](NC(=O)[C@H](CN)NC(=O)[C@@H](NC(=O)[C@H](CCN)NC(=O)c2ccc(Cl)cc2F)[C@@H](C)O)CCNC(=O)[C@H]([C@@H](C)O)NC(=O)[C@H](CCN)NC(=O)[C@H](CCN)NC1=O [Lipopeptide F448] (HELM PEPTIDE1{[O=C(c1ccc(Cl)cc1F)[*:2]].[Dab].T.[NC[C@H](N[*:1])C(=O)[*:2]].[Dab].[Dab].[dL].[Abu].[Dab].[Dab].T}$PEPTIDE1,PEPTIDE1,5:R3-11:R2$$$V2.0) | 3/3
* CCCCCCCC(=O)N[C@@H](CCN)C(=O)N[C@H](C(=O)N[C@@H](CCN)C(=O)N[C@H]1CCNC(=O)[C@H]([C@@H](C)O)NC(=O)[C@H](CCN)NC(=O)[C@H](CCN)NC(=O)[C@H](CC(C)C)NC(=O)[C@@H]([C@H](C)O)NC(=O)[C@H](CCN)NC1=O)[C@@H](C)O [Lipopeptide F228] (HELM PEPTIDE1{[CCCCCCCC(=O)[*:2]].[Dab].T.[Dab].[Dab].[Dab].[dT].L.[Dab].[Dab].T}$PEPTIDE1,PEPTIDE1,5:R3-11:R2$$$V2.0) | 1/3
* CC[C@@H]1NC(=O)[C@@H](CC(C)C)NC(=O)[C@H](CCN)NC(=O)[C@@H](NC(=O)[C@H](CN)NC(=O)[C@@H](NC(=O)[C@H](CCN)NC(=O)c2cc(Cl)cc(Cl)c2)[C@@H](C)O)CCNC(=O)[C@H]([C@@H](C)O)NC(=O)[C@H](CCN)NC(=O)[C@H](CCN)NC1=O [Lipopeptide F381] (HELM PEPTIDE1{[O=C(c1cc(Cl)cc(Cl)c1)[*:2]].[Dab].T.[NC[C@H](N[*:1])C(=O)[*:2]].[Dab].[Dab].[dL].[Abu].[Dab].[Dab].T}$PEPTIDE1,PEPTIDE1,5:R3-11:R2$$$V2.0) | 1/3

// next item, Kidney histopathology, mice with the SQS score requested
(Q) Quick check: Kidney histopathology, mice with the SQS score of CCCCCCCC(=O)N[C@@H](CCN)C(=O)N[C@H](C(=O)N[C@@H](CCN)C(=O)N[C@H]1CCNC(=O)[C@H]([C@@H](C)O)NC(=O)[C@H](CCN)NC(=O)[C@H](CCN)NC(=O)[C@H](C(C)C)NC(=O)[C@@H](CC(C)C)NC(=O)[C@H](CCN)NC1=O)[C@@H](C)O [Lipopeptide F225] (HELM PEPTIDE1{[CCCCCCCC(=O)[*:2]].[Dab].T.[Dab].[Dab].[Dab].[dL].V.[Dab].[Dab].T}$PEPTIDE1,PEPTIDE1,5:R3-11:R2$$$V2.0) ?
(A) 3/3
